Protein target, amino acids: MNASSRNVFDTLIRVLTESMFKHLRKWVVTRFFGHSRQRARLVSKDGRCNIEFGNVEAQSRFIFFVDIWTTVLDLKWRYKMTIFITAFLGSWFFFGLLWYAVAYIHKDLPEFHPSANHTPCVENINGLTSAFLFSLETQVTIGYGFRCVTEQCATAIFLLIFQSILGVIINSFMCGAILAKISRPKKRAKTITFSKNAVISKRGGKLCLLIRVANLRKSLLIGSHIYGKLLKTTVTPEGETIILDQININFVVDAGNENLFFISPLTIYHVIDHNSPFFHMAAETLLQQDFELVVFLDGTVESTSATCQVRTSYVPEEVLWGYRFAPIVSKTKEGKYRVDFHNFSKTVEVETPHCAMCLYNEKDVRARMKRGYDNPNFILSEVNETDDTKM
pIC50: −log10 of the molar value.
ENDPOINT: pIC50

* CC1=C(N2C(=O)[C@]3(CC[C@H](NCc4cnc(-n5cnnn5)cn4)CC3)C[C@H]2C)COC1=O | 7.19
* CC1=C(N2C(=O)[C@]3(CC[C@@H](N(C)Cc4cnc(-n5cnnn5)cn4)CC3)C[C@@H]2C)COC1=O | 6.51

a = CC1=C(N2C(=O)[C@]3(CC[C@@H](NCc4cnc(-n5cnnn5)cn4)CC3)C[C@@H]2C)COC1=O
b = CC1=C(N2CC[C@]3(CC[C@@H](NCc4cc(C)c(-n5cnnn5)nn4)CC3)C2=O)COC1=O
c = C[C@@H]1C[C@]2(CC[C@@H](NCc3ccc(-n4cnnn4)nn3)CC2)C(=O)N1C1=CC(=O)OC1
Task: Sort entries by pIC50 from minimum to maximum value. Labels, requested order.
Output: a, c, b

The measurements presented in this section are drawn from ChEMBL document CHEMBL5725551.
